- tgt: Peroxisome proliferator-activated receptor gamma (Homo sapiens) (UniProt P37231)
- Sequence (whole entry): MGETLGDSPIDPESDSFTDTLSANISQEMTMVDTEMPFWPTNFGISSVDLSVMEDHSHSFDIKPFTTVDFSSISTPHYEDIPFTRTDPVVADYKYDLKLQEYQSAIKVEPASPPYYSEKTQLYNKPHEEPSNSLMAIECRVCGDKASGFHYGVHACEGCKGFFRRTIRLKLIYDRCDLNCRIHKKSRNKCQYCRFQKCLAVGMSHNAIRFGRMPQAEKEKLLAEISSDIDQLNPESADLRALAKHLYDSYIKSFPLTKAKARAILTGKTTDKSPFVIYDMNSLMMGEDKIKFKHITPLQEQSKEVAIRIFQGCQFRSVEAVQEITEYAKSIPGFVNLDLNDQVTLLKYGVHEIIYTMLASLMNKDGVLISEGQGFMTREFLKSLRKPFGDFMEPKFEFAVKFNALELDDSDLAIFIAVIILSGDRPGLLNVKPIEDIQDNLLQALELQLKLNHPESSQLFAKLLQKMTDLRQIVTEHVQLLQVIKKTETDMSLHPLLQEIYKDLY
- run description: Agonist activity at recombinant human GAL4-DBD fused PPARgamma LBD expressed in COS7 cells at 10 uM after 24 hrs by luciferase reporter gene assay relative to rosiglitazone
- Assay type: cell-based
measure: Emax (%)
All answers are understood in %, so give the number only.

Cc1cccc(Oc2ccc3nc(COc4cccc(C(=O)O)c4)n(C)c3c2)n1 :: 78

Task: Could you please provide reported Emax for Cc1ccc(Oc2cc3c(cn2)nc(COc2cccc(C(=O)O)c2)n3C)cc1 ? Thanks!
Result: 80

Task: Answer with reported Emax of Cc1ccc(Oc2ccc3nc(COc4cccc(C(=O)O)c4)n(C)c3n2)cc1F
Result: 80

Task: Answer with reported Emax of Cn1c(COc2cccc(C(=O)O)c2)nc2ccc(Oc3ncc(Cl)cc3F)cc21
Result: 79

Task: In one line, give reported Emax of the entry Cn1c(COc2cccc(C(=O)O)c2)nc2ccc(Oc3ccc(Cl)c(F)c3)cc21 .
Result: 82

Task: Name the recorded Emax of the item Cc1ccc(Oc2ccc3nc(COc4cccc(C(=O)O)c4)n(C)c3c2)nc1C in your answer.
Result: 81

Task: Answer with the recorded Emax for the compound listed here: Cn1c(COc2cccc(C(=O)O)c2)nc2ccc(Oc3ccc4c(c3)CCC4)nc21
Result: 79

---

Listing of recorded remaining at 0.5 h by entry.
- run description: Metabolic stability in human liver microsomes after 0.5 hrs
- Type: ADME, microsome
- experimental conditions: read-out: Stability
Express it in %; write the number only.

Examples with answers:
Cn1c(COc2cccc(C(=O)O)c2)nc2ccc(Oc3ccc(Cl)cn3)cc21 :: 100
Cc1cc(C)cc(Oc2ccc3nc(COc4cccc(C(=O)O)c4)n(C)c3n2)c1 :: 71
Cc1ccc(Oc2ccc3nc(COc4cccc(C(=O)O)c4)n(C)c3n2)cc1F :: 96
Cn1c(COc2cccc(C(=O)O)c2)nc2ccc(Oc3ncccc3F)cc21 :: 100
Cn1c(COc2cccc(C(=O)O)c2)nc2ccc(Oc3ccc4c(c3)CCC4)nc21 :: 76

Task: Name the recorded remaining at 0.5 h of the item Cc1cccnc1Oc1ccc2nc(COc3cccc(C(=O)O)c3)n(C)c2c1 in your answer.
Result: 100

Task: # return recorded remaining at 0.5 h for input Cn1c(COc2cccc(C(=O)O)c2)nc2ccc(Oc3ccc4c(c3)OCC4)nc21
Result: 92

Task: For the compound Cn1c(COc2cccc(C(=O)O)c2)nc2cnc(Oc3ccc(Cl)c(F)c3)cc21 , report remaining at 0.5 h.
Result: 98

Task: Determine its reported remaining at 0.5 h: Cn1c(COc2cccc(C(=O)O)c2)nc2ccc(Oc3ccc(Cl)c(F)c3)cc21
Result: 100

Task: Report measured remaining at 0.5 h; entry is Cn1c(COc2cccc(C(=O)O)c2)nc2cnc(Oc3ccc4c(c3)CCC4)cc21
Result: 100

Task: Consider the compound Cn1c(COc2cccc(C(=O)O)c2)nc2cnc(Oc3ccc4c(c3)OCC4)cc21 and give its recorded remaining at 0.5 h.
Result: 100
